Task for the reader: assign each of the following compounds its reported drug sensitivity score.
system: HepG2; assay: drug sensitivity score (DSS) for viability; higher = more toxic; extreme values may be limits of the assay; conditions: 72 h

query: Query (compound): O=C(Nc1ccc(S(=O)(=O)C(F)(F)F)cc1)C1=CCN(c2ncccc2C(F)(F)F)CC1 ; field requested: drug sensitivity score
result: 3.9

query: Query (compound): Fc1ccc2nc(CCC#Cc3ccccn3)cn2c1 ; field requested: drug sensitivity score
result: 0

query: Query (compound): C[N+]12CCC(CC1)C(OC(=O)C(O)(c1ccccc1)c1ccccc1)C2 (stereo not given) ; field requested: drug sensitivity score
result: 0

query: Query (compound): Cc1nc(Nc2n[nH]c3c2CN(C(=O)N[C@H](CN(C)C)c2ccccc2)C3(C)C)c2sccc2n1 ; field requested: drug sensitivity score
result: 24.9

query: Query (compound): CNC(=O)c1ccccc1Nc1nc(Nc2ccc(N3CCOCC3)cc2OC)ncc1Cl ; field requested: drug sensitivity score
result: 13.5
